This listing pairs molecules with measured IC50.
- measured-on: human Serotonin 5-HT6 receptor (Homo sapiens)
- Construct: expressed in transfected cells; host or cells: HEK cells
- procedure-text: In vitro binding affinity for human 5-HT6 receptor ([3H]LSD, membranes of transfected HEK cells)
- condition-label: human 5-HT6, [3H]Lysergic acid diethylamide 2 nM, HEK cell membranes; read-out: pIC50 Values (5-HT6) (converted)
observed-property: IC50 (nM)

molecule: Fc1ccc(Oc2cc(N3CCNCC3)nnc2C(F)(F)F)cc1 [Co. No. 1]
observed-property: IC50
observed-result: 251
//
molecule: Fc1ccc(/C=C/c2cc(N3CCNCC3)nnc2C(F)(F)F)cc1 [Co. No. 8]
observed-property: IC50
observed-result: 63.1
//
molecule: Fc1ccc(Nc2cc(N3CCNCC3)nnc2C(F)(F)F)cc1 [Co. No. 2]
observed-property: IC50
observed-result: 63.1
//
molecule: OC(c1ccccc1)c1cc(N2CCNCC2)nnc1C(F)(F)F (centres unmarked) [Co. No. 5]
observed-property: IC50
observed-result: 631
//
molecule: CN1CCN(c2cc(/C=C/c3ccccc3)c(C(F)(F)F)nn2)CC1 [Co. No. 11]
observed-property: IC50
observed-result: 398

====

Structures can show the parent of a compound that is named as a salt.
I would appreciate it if you labelled entries yes when melting point is 200 °C or higher, otherwise no.

compound: Fc1ccc(Nc2cc(N3CCNCC3)nnc2C(F)(F)F)cc1 (as salt: HCl) (hydrate or solvate) [Co. No. 16]
answer-label: yes
//
compound: FC(F)(F)c1nnc(N2CCN(Cc3ccncc3)CC2)cc1/C=C/c1ccccc1 (as salt: trifluoroacetate) [Co. No. 17]
answer-label: no
//
compound: CN1CCN(c2cc(/C=C/c3ccccc3)c(C(F)(F)F)nn2)CC1 [Co. No. 11]
answer-label: no
//
compound: FC(F)(F)c1nnc(N2CCNCC2)cc1Cc1ccccc1 [Co. No. 3]
answer-label: no
//
compound: CN1CCN(c2cc(C(=O)c3ccccc3)c(C(F)(F)F)nn2)CC1 [Co. No. 13]
answer-label: no
//
compound: FC(F)(F)c1nnc(N2CCN(Cc3ccccn3)CC2)cc1/C=C/c1ccccc1 [Co. No. 18]
answer-label: no
//
compound: O=C(c1ccccc1)c1cc(N2CCNCC2)nnc1C(F)(F)F [Co. No. 4]
answer-label: yes
//
compound: Fc1ccc(Oc2cc(N3CCNCC3)nnc2C(F)(F)F)cc1 [Co. No. 1]
answer-label: no
//
compound: O=S(=O)(c1ccccc1)c1cc(N2CCNCC2)nnc1C(F)(F)F [Co. No. 6]
answer-label: no
//
compound: Fc1ccc(COc2cc(N3CCNCC3)nnc2C(F)(F)F)cc1 [Co. No. 15]
answer-label: no
//
compound: Fc1ccc(C#Cc2cc(N3CCNCC3)nnc2C(F)(F)F)cc1 [Co. No. 9]
answer-label: yes
//
compound: Fc1ccc(/C=C/c2cc(N3CCNCC3)nnc2C(F)(F)F)cc1 [Co. No. 8]
answer-label: no

====

- measured-on: human Serotonin 5-HT6 receptor (Homo sapiens, UniProt P50406)
- Construct: expressed in transfected cells; host or cells: HEK cells
- Sequence (P50406 whole entry): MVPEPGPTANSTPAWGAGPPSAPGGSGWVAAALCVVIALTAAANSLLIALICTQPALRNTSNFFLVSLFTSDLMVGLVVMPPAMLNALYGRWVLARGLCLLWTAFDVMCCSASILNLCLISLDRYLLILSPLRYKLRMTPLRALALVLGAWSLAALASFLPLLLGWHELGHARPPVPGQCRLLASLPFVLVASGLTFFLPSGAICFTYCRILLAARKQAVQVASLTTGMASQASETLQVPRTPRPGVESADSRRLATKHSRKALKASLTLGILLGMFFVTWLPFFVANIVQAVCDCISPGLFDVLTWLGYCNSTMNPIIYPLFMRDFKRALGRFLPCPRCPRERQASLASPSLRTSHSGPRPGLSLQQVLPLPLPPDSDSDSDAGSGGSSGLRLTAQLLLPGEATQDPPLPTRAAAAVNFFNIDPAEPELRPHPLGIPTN
- procedure-text: In vitro binding affinity for human 5-HT6 receptor ([3H]LSD, membranes of transfected HEK cells)
- condition-label: human 5-HT6, [3H]Lysergic acid diethylamide 2 nM, HEK cell membranes; read-out: pIC50 Values (5-HT6) (converted)

mol: O=S(=O)(c1ccccc1)c1cc(N2CCNCC2)nnc1C(F)(F)F
measured-on: human Serotonin 5-HT6 receptor (Homo sapiens, UniProt P50406)
units-of-measure: nM
IC50: 251
--
mol: Fc1ccc(COc2cc(N3CCNCC3)nnc2C(F)(F)F)cc1
measured-on: human Serotonin 5-HT6 receptor (Homo sapiens, UniProt P50406)
units-of-measure: nM
IC50: 398
--
mol: FC(F)(F)c1nnc(N2CCN(Cc3ccncc3)CC2)cc1/C=C/c1ccccc1
measured-on: human Serotonin 5-HT6 receptor (Homo sapiens, UniProt P50406)
units-of-measure: nM
IC50: 1260
--
mol: Fc1ccc(C#Cc2cc(N3CCNCC3)nnc2C(F)(F)F)cc1
measured-on: human Serotonin 5-HT6 receptor (Homo sapiens, UniProt P50406)
units-of-measure: nM
IC50: 1580
--
mol: Fc1ccc(/C=C\c2cc(N3CCNCC3)nnc2C(F)(F)F)cc1
measured-on: human Serotonin 5-HT6 receptor (Homo sapiens, UniProt P50406)
units-of-measure: nM
IC50: 158
--
mol: Fc1ccc(CNc2cc(N3CCNCC3)nnc2C(F)(F)F)cc1
measured-on: human Serotonin 5-HT6 receptor (Homo sapiens, UniProt P50406)
units-of-measure: nM
IC50: 631
--
mol: O=C(c1ccccc1)c1cc(N2CCNCC2)nnc1C(F)(F)F
measured-on: human Serotonin 5-HT6 receptor (Homo sapiens, UniProt P50406)
units-of-measure: nM
IC50: 126
--
mol: CN1CCN(c2cc(C(=O)c3ccccc3)c(C(F)(F)F)nn2)CC1
measured-on: human Serotonin 5-HT6 receptor (Homo sapiens, UniProt P50406)
units-of-measure: nM
IC50: 158
--
mol: FC(F)(F)c1nnc(N2CCNCC2)cc1Cc1ccccc1
measured-on: human Serotonin 5-HT6 receptor (Homo sapiens, UniProt P50406)
units-of-measure: nM
IC50: 126
--
mol: FC(F)(F)c1nnc(N2CCN(Cc3ccccn3)CC2)cc1/C=C/c1ccccc1
measured-on: human Serotonin 5-HT6 receptor (Homo sapiens, UniProt P50406)
units-of-measure: nM
IC50: 6310
